meta.source: patent US11702422B2

molecular target: IL-17A(FLAG-Tagged): IL-17RA(His-Tagged) (Homo sapiens, UniProt Q16552, K93Q); experiment: IL-17A(FLAG-Tagged): IL-17RA(His-Tagged) Binding Disruption Eu-HTRF Assay; details: IL-17A/IL-17RA binding disruption, simple average if tested more than once
Sequence (Q16552 with tags, fused parts or gaps K93Q): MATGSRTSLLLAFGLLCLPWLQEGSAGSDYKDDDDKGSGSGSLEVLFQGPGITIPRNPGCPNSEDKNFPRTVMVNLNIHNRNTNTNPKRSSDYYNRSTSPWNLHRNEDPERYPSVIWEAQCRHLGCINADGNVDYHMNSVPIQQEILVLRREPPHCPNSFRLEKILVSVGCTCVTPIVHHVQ
Counter-ions that a name gives are not always drawn.
One threshold, 600 nM, splits the recorded IC50 values: lower ones are Met, equal or higher ones are Not met.

compound | assigned_label
O=C(CCC(F)(F)F)N[C@@H](c1cnn2cc([C@@H](NC(=O)c3cnn(CC4CC(F)(F)C4)n3)C3CCC(F)(F)CC3)nc2c1)C1CC1 [Example 63] | Met
COc1nonc1C(=O)N[C@H](c1cn2ncc([C@H](NC(=O)CC3CC(F)(F)C3)C3CC3)cc2n1)C1CCC(F)(F)CC1 [Example 409] | Met
CC(C)n1nccc1C(=O)N[C@H](c1cn2ncc(C(NC(=O)CC3CC(F)(F)C3)C(C)(C)O)cc2n1)C1CCC(F)(F)CC1 (single isomer, unassigned) [Example 444] | Not met
Cc1nonc1C(=O)N[C@@H](COC(C)(C)C)c1cn2ncc(C(NC(=O)CCC(F)(F)F)C3CC3)cc2n1 (single isomer, unassigned) [Example 315] | Not met
CC(n1nccc1C(=O)N[C@H](c1cn2ncc([C@H](NC(=O)CCC(F)(F)F)C3CC3)cc2n1)C1CCC(F)(F)CC1)C(F)(F)F (single isomer, unassigned) [Example 115] | Met
O=C(N[C@H](c1cn2ncc(CNC(=O)[C@H]3NCCC[C@@H]3C(F)(F)F)cc2n1)C1CCCCC1)c1ccccc1 (relative stereo) [Example 2, hydrochloride] | Not met
Cc1cc(C(=O)N[C@H](c2cn3ncc([C@H](NC(=O)CCC(F)(F)F)C4CC4)cc3n2)C2CCC(F)(F)CC2)cnn1 [Example 418] | Not met
O=C(CCC(F)(F)F)N[C@@H](c1cnn2cc([C@@H](NC(=O)c3nonc3C3CC3)C3CCC(F)(F)CC3)nc2c1)C1CC1 [Example 381] | Met
CC(C)n1nccc1C(=O)N[C@H](c1cn2ncc(C(NC(=O)C(F)(F)CC3CC3)C3(C#N)CC3)cc2n1)C1CCC(F)(F)CC1 (single isomer, unassigned) [Example 437] | Not met
CC(C)n1nccc1C(=O)N[C@H](c1cn2ncc(C(CO)NC(=O)CC3CC(F)(F)C3)cc2n1)C1CCC(F)(F)CC1 (single isomer, unassigned) [Example 533] | Met
Cn1ccnc1C(=O)N[C@H](c1cn2ncc([C@H](NC(=O)CCC(F)(F)F)C3CC3)cc2n1)C1CCC(F)(F)CC1 [Example 469] | Not met
CC(C)n1nccc1C(=O)N[C@H](c1cn2ncc([C@H](NC(=O)C[C@H]3CC3(F)F)C3CC3)cc2n1)C1CCC(F)(F)CC1 (single isomer, unassigned) [Example 140] | Met
N#CC1(C(NC(=O)CC2(C(F)(F)F)CC2)c2cnn3cc([C@@H](NC(=O)c4nonc4C4CC4)C4CCC(F)(F)CC4)nc3c2)CC1 (single isomer, unassigned) [Example 433] | Not met
[2H]C([2H])([2H])C([2H])([2H])n1nccc1C(=O)N[C@H](c1cn2ncc([C@H](NC(=O)CC3CC(F)(F)C3)C3CC3)cc2n1)C1CCC(F)(F)CC1 [Example 234] | Met
CCc1nonc1C(=O)N[C@H](c1cn2ncc([C@H](NC(=O)CCC(F)(F)F)C3CC3)cc2n1)C1CCC(F)(F)CC1 [Example 156] | Met
Cc1nonc1C(=O)N[C@H](c1cn2ncc([C@H](NC(=O)[C@H](F)[C@H](C)C(F)(F)F)C3CC3)cc2n1)C1CCC(F)(F)CC1 (relative stereo) [Example 353] | Not met

----------
target: IL-17A(FLAG-Tagged): IL-17RA(His-Tagged) (Homo sapiens, UniProt Q16552, K93Q); assay: IL-17A(FLAG-Tagged): IL-17RA(His-Tagged) Binding Disruption Eu-HTRF Assay; settings: IL-17A/IL-17RA binding disruption, simple average if tested more than once
pIC50: −log10 of the molar value.

compound | target_or_test_system | pIC50
N#Cc1cccc(C(=O)N[C@H](c2cn3ncc([C@H](NC(=O)CCC(F)(F)F)C4CC4)cc3n2)C2CCC(F)(F)CC2)c1 | IL-17A(FLAG-Tagged): IL-17RA(His-Tagged) (Homo sapiens, UniProt Q16552, K93Q) | 6.82
CCC(CC(=O)N[C@@H](c1cnn2cc([C@@H](NC(=O)c3nonc3C)C3CCC(F)(F)CC3)nc2c1)C1CC1)CC(F)(F)F (single isomer, unassigned) [Example 342] | IL-17A(FLAG-Tagged): IL-17RA(His-Tagged) (Homo sapiens, UniProt Q16552, K93Q) | 6.47
CC(F)(F)Cn1ncnc1C(=O)N[C@H](c1cn2ncc([C@H](NC(=O)CCC(F)(F)F)C3CC3)cc2n1)C1CCC(F)(F)CC1 | IL-17A(FLAG-Tagged): IL-17RA(His-Tagged) (Homo sapiens, UniProt Q16552, K93Q) | 6.54
Cc1nonc1C(=O)N[C@H](c1cn2ncc([C@H](NC(=O)C(F)(F)CC3CC3)C3CC3)cc2n1)C1CCC(F)(F)CC1 | IL-17A(FLAG-Tagged): IL-17RA(His-Tagged) (Homo sapiens, UniProt Q16552, K93Q) | 7.11
CCOc1nonc1C(=O)N[C@H](c1cn2ncc([C@H](NC(=O)CC3CC(F)(F)C3)C3CC3)cc2n1)C1CCC(F)(F)CC1 | IL-17A(FLAG-Tagged): IL-17RA(His-Tagged) (Homo sapiens, UniProt Q16552, K93Q) | 7.37
Cc1nonc1C(=O)N[C@H](c1cn2ncc([C@H](NC(=O)C(C)CC(F)(F)F)C3CC3)cc2n1)C1CCC(F)(F)CC1 (single isomer, unassigned) [Example 347] | IL-17A(FLAG-Tagged): IL-17RA(His-Tagged) (Homo sapiens, UniProt Q16552, K93Q) | 6.33
CC(C)Oc1nocc1C(=O)N[C@H](c1cn2ncc([C@H](NC(=O)CC3CC(F)(F)C3)C3CC3)cc2n1)C1CCC(F)(F)CC1 | IL-17A(FLAG-Tagged): IL-17RA(His-Tagged) (Homo sapiens, UniProt Q16552, K93Q) | 6.66
N#CCC(NC(=O)CC1CC(F)(F)C1)c1cnn2cc([C@@H](NC(=O)c3nonc3C3CC3)C3CCC(F)(F)CC3)nc2c1 (single isomer, unassigned) | IL-17A(FLAG-Tagged): IL-17RA(His-Tagged) (Homo sapiens, UniProt Q16552, K93Q) | 7.38
COc1nccc(C(=O)N[C@H](c2cn3ncc([C@H](NC(=O)CCC(F)(F)F)C4CC4)cc3n2)C2CCC(F)(F)CC2)n1 | IL-17A(FLAG-Tagged): IL-17RA(His-Tagged) (Homo sapiens, UniProt Q16552, K93Q) | 5.37
CC(C)n1nccc1C(=O)N[C@H](c1cn2ncc([C@H](NC(=O)CCC(C)(F)F)C3CC3)cc2n1)C1CCC(F)(F)CC1 | IL-17A(FLAG-Tagged): IL-17RA(His-Tagged) (Homo sapiens, UniProt Q16552, K93Q) | 6.92
CCOCC(NC(=O)CC1CC(F)(F)C1)c1cnn2cc([C@@H](NC(=O)c3ccnn3C(C)C)C3CCC(F)(F)CC3)nc2c1 (single isomer, unassigned) [Example 529] | IL-17A(FLAG-Tagged): IL-17RA(His-Tagged) (Homo sapiens, UniProt Q16552, K93Q) | 6.47
CC(C)n1nccc1C(=O)N[C@H](c1cn2ncc([C@H](NC(=O)CC(C)C(F)(F)F)C3CC3)cc2n1)C1CCC(F)(F)CC1 (single isomer, unassigned) [Example 122] | IL-17A(FLAG-Tagged): IL-17RA(His-Tagged) (Homo sapiens, UniProt Q16552, K93Q) | 6.96
CC(C)n1nccc1C(=O)N[C@H](c1cn2ncc([C@H](NC(=O)CC(C)(C)C(F)(F)F)C3CC3)cc2n1)C1CCC(F)(F)CC1 | IL-17A(FLAG-Tagged): IL-17RA(His-Tagged) (Homo sapiens, UniProt Q16552, K93Q) | 6.54
O=C(CCC(F)(F)F)N[C@@H](c1cnn2cc([C@@H](NC(=O)c3nnn(C4CC4)c3C(F)F)C3CCC(F)(F)CC3)nc2c1)C1CC1 | IL-17A(FLAG-Tagged): IL-17RA(His-Tagged) (Homo sapiens, UniProt Q16552, K93Q) | 6.39
O=C(CCC(F)(F)F)NCc1cnn2cc([C@@H](NC(=O)c3ccccc3)C3CCC(F)(F)CC3)nc2c1 | IL-17A(FLAG-Tagged): IL-17RA(His-Tagged) (Homo sapiens, UniProt Q16552, K93Q) | 5.96
Cc1c(C(=O)N[C@H](c2cn3ncc([C@H](NC(=O)CCC(F)(F)F)C4CC4)cc3n2)C2CCC(F)(F)CC2)cnn1CC(F)F | IL-17A(FLAG-Tagged): IL-17RA(His-Tagged) (Homo sapiens, UniProt Q16552, K93Q) | 6.46
COCC(NC(=O)CC1CC(F)(F)C1)c1cnn2cc([C@@H](NC(=O)c3nonc3C3CC3)C3CCC(F)(F)CC3)nc2c1 (single isomer, unassigned) [Example 524] | IL-17A(FLAG-Tagged): IL-17RA(His-Tagged) (Homo sapiens, UniProt Q16552, K93Q) | 6.42
CC(C)n1nccc1C(=O)N[C@H](c1cn2ncc([C@H](NC(=O)CC34CC(C3)C4)C3CC3)cc2n1)C1CCC(F)(F)CC1 | IL-17A(FLAG-Tagged): IL-17RA(His-Tagged) (Homo sapiens, UniProt Q16552, K93Q) | 7.31
CC(C)n1nccc1C(=O)N[C@H](c1cn2ncc([C@H](NC(=O)C[C@H]3C[C@@H](F)C3)C3CC3)cc2n1)C1CCC(F)(F)CC1 (single isomer, unassigned) | IL-17A(FLAG-Tagged): IL-17RA(His-Tagged) (Homo sapiens, UniProt Q16552, K93Q) | 6.96
O=C(CCC(F)(F)F)N[C@@H](c1cnn2cc([C@@H](NC(=O)c3cnn(CCOC(F)(F)F)c3)C3CCC(F)(F)CC3)nc2c1)C1CC1 | IL-17A(FLAG-Tagged): IL-17RA(His-Tagged) (Homo sapiens, UniProt Q16552, K93Q) | 6.85
O=C(CCC(F)(F)F)N[C@@H](c1cnn2cc([C@@H](NC(=O)c3cccc(OC(F)F)c3)C3CCC(F)(F)CC3)nc2c1)C1CC1 | IL-17A(FLAG-Tagged): IL-17RA(His-Tagged) (Homo sapiens, UniProt Q16552, K93Q) | 7.43
O=C(CCC(F)(F)F)N[C@@H](c1cnn2cc([C@@H](NC(=O)c3nocc3OCCF)C3CCC(F)(F)CC3)nc2c1)C1CC1 | IL-17A(FLAG-Tagged): IL-17RA(His-Tagged) (Homo sapiens, UniProt Q16552, K93Q) | 7.10
